- assay_system: human S1P1 receptor (Homo sapiens)
- Construct: membranes used
- Sequence (P21453 whole entry): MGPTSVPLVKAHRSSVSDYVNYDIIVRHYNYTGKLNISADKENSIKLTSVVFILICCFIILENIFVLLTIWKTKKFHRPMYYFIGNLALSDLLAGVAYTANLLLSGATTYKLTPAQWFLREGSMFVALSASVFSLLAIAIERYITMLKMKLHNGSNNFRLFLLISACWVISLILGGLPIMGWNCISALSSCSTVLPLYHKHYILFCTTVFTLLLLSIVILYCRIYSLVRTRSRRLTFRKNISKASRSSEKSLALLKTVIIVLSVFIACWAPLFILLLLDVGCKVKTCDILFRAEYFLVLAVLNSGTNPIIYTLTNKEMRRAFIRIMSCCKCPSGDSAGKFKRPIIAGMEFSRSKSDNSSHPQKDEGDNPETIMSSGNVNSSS
- protocol_details: GTP γ35S binding assay for S1P1 activity
- measurement_context: activity potency from GTP γ35S binding; membranes, test compounds 0.08 to 5,000 nM, 30 min at 25° C.
recorded_metric: EC50 (µM)

// known answers, use as guide
[[record]]
compound = "CNc1ncccc1-c1noc(C(Oc2ccc(Cl)cc2)c2ccc(Cl)cc2)n1 (stereo not shown)"
assay_system = "human S1P1 receptor (Homo sapiens)"
value_unit = "µM"
recorded_measurement = 2.05

[[record]]
compound = "CNc1ncccc1-c1noc(C(Sc2ccc(C)c(C)c2)c2ccccc2Cl)n1 (stereo not shown)"
assay_system = "human S1P1 receptor (Homo sapiens)"
value_unit = "µM"
recorded_measurement = 0.716


A. CNc1ncccc1-c1noc(C(Sc2ccc(C)c(C)c2)c2ccc(Cl)c(Cl)c2)n1 (stereo not shown)
B. CNc1ncccc1-c1noc(C(Oc2ccc(C)c(C)c2)c2ccccc2Cl)n1 (stereo not shown)
Enquiry: Hello, I am sorting some records. Could you say if A or B has the smaller EC50 value? Please indicate the selected item by its label.
Return: A
